The origin of these recorded values is PubChem BioAssay AID2417.

assay procedure: High Content Assay for Compounds that inhibit the Assembly of the Perinucleolar Compartment;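 note: plate controls were DMSO wells for no effect and camptothecin positive control wells for full effect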
assay conditions: PC3M PTB-GFP, PNC prevalence imaging, 16 h; at 10 µM; hits give low values
Among all 140,000 compounds or so, about 4,300 (3.1%) were called active. About 21% were inconclusive and are not listed. Only a selection was taken, and actives are over-represented in it overall.
Entries and their activity change (PNC), negative = inhibition values follow.

compound | result
Cc1nnc(NC(=O)/C=C/c2ccco2)s1 | -22.5% (inactive)
OC(COCc1ccco1)CN1CCN(c2ccccc2)CC1 (stereo not drawn) | -85.3% (active)
CCC1=NN(C(=O)Cc2ccc([N+](=O)[O-])cc2)C(O)(c2ccc(Br)cc2)C1 (stereo not drawn) | 99.6% (inactive)
COc1ccc(NC(C(=O)Nc2cccc(C(C)=O)c2)c2ccccc2)cc1 (stereo not drawn) | 18.3% (inactive)
Brc1ccc(C2CC(c3ccccc3)=Nc3ccccc3N2)cc1 (stereo not drawn) | -29.2% (inactive)

Need activity change (PNC), negative = inhibition of `O=C(NC1CC1)c1ccc2c(c1)NC(=O)c1ccccc1S2` , thanks. 14.7% (inactive)

Item: `COc1ccc(/C(C)=N/Nc2cc(C(F)(F)F)ccc2Cl)c(OC)c1` -13.2% (inactive)

Item: CC(Sc1cccc[n+]1[O-])C(=O)Nc1cccc(S(=O)(=O)N2CCOCC2)c1 (stereo not drawn) -7.27% (inactive)

Item: `CCCCN(C)C(=O)C1CCN(Cc2ccccn2)CC1` -84.5% (active)

Item: CCCOc1ccc(NC(=O)CC2C(=O)N(C)C(=S)N2Cc2ccc3c(c2)OCO3)cc1 (stereo not drawn) -134% (active)

Item: `CC(=O)CCC(=O)c1ccc2ccccc2c1` 36.3% (inactive)

Item: `COc1ccc(-c2cc3ccc(OCc4nn[nH]n4)cc3oc2=O)cc1` -119% (active)

Item: `CCCCN(C)c1ccc([N+](=O)[O-])cc1` 22.3% (inactive)

Item: `CCCCc1cc(=O)oc2cc(C)cc(OCc3nn[nH]n3)c12` 9.68% (inactive)

Item: `COc1cc(OC)cc(C(=O)NC2CCN(C(=O)N3c4ccccc4Sc4ccccc43)CC2)c1` -91% (active)

Item: `O=c1oc2cc(O)ccc2cc1-c1ccc(F)cc1` 13% (inactive)

Item: `CCOc1ccc(NCCC(=O)c2ccc3c(c2)OCO3)cc1` 23% (inactive)
